Where do the numbers come from? From PubChem BioAssay (NCI).

tested on: MDA-MB-231 breast; test: NCI tumour cell line growth inhibition, 48 h
RECORDED_ENDPOINT: TGI (µM)
Just the number in µM, nothing appended.

The molecule CCC1CC(C)C(O)/C=C/C=C/CC(C)OC(=O)CC(O)C(OC)C1OC1OC(C)CC(O)(C(C)=O)C1O (stereo not drawn) , tested on MDA-MB-231 breast, showed TGI of 67.9

The molecule Cc1cc(-n2c(/C=C/c3ccc(Cl)cc3)nc3cc(Cl)ccc3c2=O)on1 , tested on MDA-MB-231 breast, showed TGI of 42.4

The molecule N#Cc1c(-c2ccc([N+](=O)[O-])cc2)cc(-c2ccc(Nc3ccnc4cc(C(F)(F)F)ccc34)cc2)[nH]c1=O , tested on MDA-MB-231 breast, showed TGI of 44.7

The molecule CC(C)=CC(=O)c1[nH]c2ccccc2c1CC(=O)NCCc1cn(C(c2ccccc2)(c2ccccc2)c2ccccc2)cn1 , tested on MDA-MB-231 breast, showed TGI of 6.36

###

test system: UACC-257 melanoma; test: NCI tumour cell line growth inhibition, 48 h; in the data active = GI50 below about 0.43 µM; inactive = the rest
Please state which outcome applies, choosing from class 1 (active), class 0 (inactive)

Called result for C=C1c2c(C)nn(-c3ccc(OC)cc3)c2N(C)C23C[C@@H]1C1(C)c4c(C)nn(-c5ccc(OC)cc5)c4N(C)C(C)(C[C@H]12)C3 (some centres undefined)
class 0

Called result for O=C1NC(=O)/C(=C/c2c(Cl)nc3sccn23)S1
class 0

Called result for COc1cc(CN[C@H]2CCc3cc(OC)c(OC)c(OC)c3-c3ccc(SC)c(=O)cc32)cc(OC)c1
class 1

Called result for Brc1ccc(SCN(CSc2ccc(Br)cc2)Cc2ccccc2)cc1
class 0

Called result for CNC(=O)C(CCc1ccccc1)NC(=O)C(CC(=O)NO)CC(C)C (centres undefined)
class 0

Called result for COc1ncc(-c2ccc3nccc(C#CCCCCC(=O)O)c3c2)cc1NS(=O)(=O)c1ccc(F)cc1F
class 1

Called result for COc1ccc(-c2c(-c3cc(OC)c(OC)c(OC)c3)nc3sc(C4CC4)nn23)cc1OC
class 0

Called result for COC(=O)[C@@H](C)C[C@H](Cc1ccccc1)NC(=O)c1cccc([C@@H](C[C@H](C(C)C)N(C)C(=O)[C@@H](NC(=O)[C@H]2CCCCN2C)C2CC2)OC(C)=O)n1
class 0

Called result for Nc1ccccc1C#C/C=C\C#Cc1cnccn1
class 0

Called result for Cn1c(=O)n(CCCO)c(=O)c2c1nc(Oc1cccc(OC(F)(F)F)c1)n2Cc1ccc(Cl)cc1
class 0

Called result for CCOC(=O)c1c(NC(=O)COc2cccc3cccnc23)sc(C(=O)N(C)C)c1C
class 0

Called result for O=C1c2ccccc2C(=O)c2c1c(=O)c(=O)c1ccccc1c(=O)n2Cc1ccccc1
class 0

Called result for Cc1ccc(/C(=N/NS(=O)(=O)c2ccc([N+](=O)[O-])cc2)Sc2cc(Cl)c(C)cc2S(N)(=O)=O)cc1
class 0

Called result for C[CH2][Sn]([CH2]C)([O]C(=O)c1cccc(OC)c1)[O][Sn]([CH2]C)([CH2]C)[O]C(=O)c1cccc(OC)c1
class 0

###

Answer each item with its documented GI50.
system: OVCAR-8 ovarian; assay: NCI tumour cell line growth inhibition, 48 h

Note to self: GI50 recorded for O=[N+]([O-])c1ccc(C(Br)c2ccc([N+](=O)[O-])cc2)cc1 was 2.72 µM

Note to self: GI50 recorded for Cc1ccc(/C(=N/NS(=O)(=O)c2ccc([N+](=O)[O-])cc2)Sc2cc(Cl)c(C)cc2S(N)(=O)=O)cc1 was > 100 µM

Note to self: GI50 recorded for Nc1ccccc1C#C/C=C\C#Cc1cnccn1 was 41.8 µM

Note to self: GI50 recorded for N#C/C(=C\c1cn(Cc2ccccc2)c2ccccc12)C(=O)Nc1ncc(Cc2ccccc2Cl)s1 was 1.35 µM

Note to self: GI50 recorded for COc1ccc(-c2nnc(COc3ccc(Cl)cc3Cl)o2)cc1OC was 4.02 µM

Note to self: GI50 recorded for CC1(C)CCC2(CC1)N[C@@H](C(=O)N[C@@H]1CC[C@@H](C(N)=O)OC1)[C@H](c1ccnc(Cl)c1F)[C@]21C(=O)Nc2cc(Cl)ccc21 was 3.92 µM

Note to self: GI50 recorded for COc1ncc(-c2ccc3nccc(C#CCCCCC(=O)O)c3c2)cc1NS(=O)(=O)c1ccc(F)cc1F was 2.36 µM

Note to self: GI50 recorded for CNC(=O)C(CCc1ccccc1)NC(=O)C(CC(=O)NO)CC(C)C (stereo unspecified) was > 25 µM

Note to self: GI50 recorded for O=C1C(Cl)=C(Nc2cccc(O)c2)C(=O)N1CCc1ccccc1 was 21.5 µM

Note to self: GI50 recorded for C=CCn1c(SCC(=O)Nc2ccc(C(=O)/C=C/c3cc(OC)c(OC)c(OC)c3)cc2)nnc1-c1ccc(Cl)cc1 was 2.79 µM

Note to self: GI50 recorded for CN(C)c1ccc(Nc2ncnc3ccccc23)cc1 was > 100 µM

Note to self: GI50 recorded for COC(=O)C1=C(OC(=O)c2ccccc2)C(C(=O)OC)[C@]2(O)[C@@H](C(=O)OC)C1CC(c1ccccc1OC)[C@@H]2C(=O)OC (stereo partly specified) was 18.4 µM

Note to self: GI50 recorded for COc1ccc2c(c1)oc1c(C)c3c(c(C)c12)C(=O)N(N)C3=O was 7.89 µM

Note to self: GI50 recorded for O=C(Nc1ccc(-n2cc(-c3ccncc3)c(-c3ccc(O)c(Cl)c3)n2)cc1)c1cc(C(F)(F)F)cc(C(F)(F)F)c1 was 11.8 µM

Note to self: GI50 recorded for COc1cc(CN[C@H]2CCc3cc(OC)c(OC)c(OC)c3-c3ccc(SC)c(=O)cc32)cc(OC)c1 was 0.04 µM

Note to self: GI50 recorded for Cn1c(=O)n(CCCO)c(=O)c2c1nc(Oc1cccc(OC(F)(F)F)c1)n2Cc1ccc(Cl)cc1 was 14.4 µM

###

system: K-562 leukemia; assay: NCI tumour cell line growth inhibition, 48 h
Answer each item with its documented TGI.

Note to self: TGI recorded for CN(C)c1nc(=Nc2ccc3c(c2)OCO3)ss1 was > 100 µM

Note to self: TGI recorded for Brc1ccc(SCN(CSc2ccc(Br)cc2)Cc2ccccc2)cc1 was 60.6 µM

Note to self: TGI recorded for N#CC[C@@H](O)COc1ccccc1 was > 100 µM

Note to self: TGI recorded for CCNCCCn1c2c(c3ccc(F)cc3c1=O)C(=O)c1cc(OC)cnc1-2 was 1.68 µM

Note to self: TGI recorded for Oc1ccc(-c2nc3ccc4ccccc4c3c3c2CCCC3)c(O)c1 was > 100 µM

Note to self: TGI recorded for COc1ccc2c(c1)C1C(CO2)C(c2ccccc2)=NN1c1ccccc1 (stereo not given) was > 100 µM

Note to self: TGI recorded for Cc1c(S(=O)(=O)/N=C(\NN)Nc2ccc(Cl)cc2)sc2ccc(Cl)cc12 was > 100 µM

Note to self: TGI recorded for CN(C)c1ccc(Nc2ncnc3ccccc23)cc1 was > 100 µM

Note to self: TGI recorded for CCOC(=O)c1c(NC(=O)COc2cccc3cccnc23)sc(C(=O)N(C)C)c1C was 48.9 µM

Note to self: TGI recorded for Cc1cc(C#N)c[n+](C)c1 was > 100 µM

Note to self: TGI recorded for CCOC(=O)NC(=O)c1cn(CCCOC(=O)CCCCCCCCC(=O)OCCCn2cc(C(=O)NC(=O)OCC)c(=O)n(C)c2=O)c(=O)n(C)c1=O was > 100 µM

Note to self: TGI recorded for CC1CN=C(N(Cc2ccc(F)cc2)C(=O)Nc2ccc(Cl)cc2)S1 (stereo not given) was > 100 µM

Note to self: TGI recorded for CCc1c(-c2ccc(OC)cc2)c(=O)oc2cc(O)ccc12 was > 100 µM

Note to self: TGI recorded for O=C1c2ccccc2C(=O)c2c1c(=O)c(=O)c1ccccc1c(=O)n2Cc1ccccc1 was > 100 µM

Note to self: TGI recorded for Cc1c([C@H](C(Cl)Cl)[C@H](O)[C@H]2C[C@H](C)C(=O)O2)ccc2c1C(=O)[C@H]1[C@H]2C[C@@H](Br)[C@@]23O[C@@H](CO[C@H]2O)CC13C (stereo not given in full) was > 50 µM

Note to self: TGI recorded for COc1nc(NC2OC(COC(C)=O)C(OC(C)=O)C(OC(C)=O)C2OC(C)=O)c2c(OC(C)=O)c(C)c(=O)oc2n1 (stereo not given) was > 100 µM

Note to self: TGI recorded for CC(=O)Oc1ccc2[nH]c3c(C)c4cccc-4ccc3c2c1 was 11.5 µM

Note to self: TGI recorded for CCN1C(=O)C(=C/C=C/c2ccc(OC)cc2)C(=O)N(CC)C1=S was > 100 µM

Note to self: TGI recorded for CC(C)/C(Cl)=N\OC(=O)Nc1ccc(F)cc1 was 3.45 µM

Note to self: TGI recorded for Cn1c(=O)n(CCCO)c(=O)c2c1nc(Oc1cccc(OC(F)(F)F)c1)n2Cc1ccc(Cl)cc1 was 68.8 µM
